# assay-system: CYP2E1 (Homo sapiens)
# Sequence (P05181 whole entry): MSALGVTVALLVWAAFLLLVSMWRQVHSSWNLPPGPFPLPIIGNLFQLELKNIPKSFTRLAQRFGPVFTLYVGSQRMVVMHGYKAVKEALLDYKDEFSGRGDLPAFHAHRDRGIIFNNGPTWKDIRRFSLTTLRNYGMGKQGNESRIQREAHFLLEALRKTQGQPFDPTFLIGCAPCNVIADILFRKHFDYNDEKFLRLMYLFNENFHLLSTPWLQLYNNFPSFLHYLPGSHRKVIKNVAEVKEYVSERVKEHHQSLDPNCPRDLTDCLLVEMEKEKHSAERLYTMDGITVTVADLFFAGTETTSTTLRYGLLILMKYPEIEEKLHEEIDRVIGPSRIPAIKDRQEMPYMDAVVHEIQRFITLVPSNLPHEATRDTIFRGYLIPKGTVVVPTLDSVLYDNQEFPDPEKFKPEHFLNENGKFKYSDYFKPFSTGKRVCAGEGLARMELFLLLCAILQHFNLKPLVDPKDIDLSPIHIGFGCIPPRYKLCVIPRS
# assay-remarks: Human liver microsomal CYP2E1, chlorzoxazone 6-hydroxylation;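 also: chlorzoxazone added as substrate, 6-hydroxychlorzoxazone formation quantified by LC/MS/MS after 30 min at 37 °C with NADP+ regenerating system, compared against solvent control without test sample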
# condition-parameters: human, human liver microsomes, pH 7.4, probe Chlorzoxazone
Provide the recorded inhibition at 30 min, 66 µM for the entries that follow.
Quick reminder: number only, in %, skip the unit.

**Q:** Form field: reported inhibition at 30 min, 66 µM of COC(=O)c1ccc(O)cc1 [Methylparaben]
**A:** -21.5

**Q:** Would you kindly repeat that for CCCCCCCCCCCCOS(=O)(=O)[O-].[Na+] [Sodium lauryl sulfate] ?
**A:** 4.9

**Q:** Would you kindly repeat that for OC[C@H]1O[C@H](O[C@]2(CCl)O[C@H](CCl)[C@@H](O)[C@@H]2O)[C@H](O)[C@@H](O)[C@H]1Cl [Sucralose] ?
**A:** 55.8

**Q:** Would you kindly repeat that for O.OC[C@H]1O[C@@H](O[C@H]2[C@H](O)[C@@H](O)C(O)O[C@@H]2CO)[C@H](O)[C@@H](O)[C@H]1O (stereo partly drawn) [Lactose monohydrate] ?
**A:** 8.7

**Q:** Would you kindly repeat that for O=C(O)CC(O)(CC(=O)O)C(=O)O [Citric acid] ?
**A:** 20.5

**Q:** Would you kindly repeat that for CCCOC(=O)c1ccc(O)cc1 [Propylparaben] ?
**A:** -27.3

**Q:** Would you kindly repeat that for C/C=C/C=C/C(=O)O [Sorbic acid] ?
**A:** 14.8

**Q:** Would you kindly repeat that for OC[C@@H](O)[C@@H](O)[C@H](O)[C@H](O)CO [Mannitol] ?
**A:** 54.5

**Q:** Would you kindly repeat that for O=C1NS(=O)(=O)c2ccccc21 [Saccharin] ?
**A:** 78.5
